Data origin, for the record: patent US8420675B2

Entries and their pIC50
targetEntity: human CRTH2 (Homo sapiens)
Sequence (Q9Y5Y4 whole entry): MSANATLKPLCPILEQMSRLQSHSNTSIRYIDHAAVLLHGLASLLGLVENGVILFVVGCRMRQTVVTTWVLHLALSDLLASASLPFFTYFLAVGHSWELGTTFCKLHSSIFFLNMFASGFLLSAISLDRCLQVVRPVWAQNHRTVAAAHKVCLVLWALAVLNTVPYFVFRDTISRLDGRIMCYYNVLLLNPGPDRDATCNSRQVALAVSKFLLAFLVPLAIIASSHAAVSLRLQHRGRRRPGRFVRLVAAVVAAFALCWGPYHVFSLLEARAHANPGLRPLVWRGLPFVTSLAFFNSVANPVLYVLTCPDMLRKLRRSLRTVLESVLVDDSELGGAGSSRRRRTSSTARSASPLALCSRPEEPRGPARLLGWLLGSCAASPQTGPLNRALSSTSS
procedureSummary: Human CRTH2 Receptor Binding Assay (whole cell, [3H]ramatroban competition)
setupConditions: CHO-K1 cells expressing human CRTH2 and G-alpha16; 20 nM [3H]ramatroban; 1 hour, room temperature
# pIC50: negative log10 of molar concentration; output just the value

Completed entries (count: 2):
>>> print(df.to_string())
                                   compound  experimentalreadout  observedvalue
0  O=C(O)Cn1ncc2c1CCCC2NS(=O)(=O)c1ccc(-c2ccc(F)c(Cl)c2)cc1 (stereo not shown) [Example 10-15a]                pIC50           6.33
1  O=C(O)Cn1ncc2c1CCCC2NS(=O)(=O)c1cccc(NC(=O)c2ccccc2)c1 (stereo not shown)                pIC50           6.45

query: Supply measured pIC50 of O=C(O)Cn1ncc2c1CCCC2NS(=O)(=O)c1cnc(Oc2ccc(C(F)(F)F)cc2)c(Br)c1 (stereo not shown) in your reply.
result: 6.41

query: Report pIC50 for CN([C@@H]1CCCc2c1cnn2CC(=O)O)S(=O)(=O)c1ccc(Oc2ccc(Cl)cc2Cl)c(Cl)c1
result: 7.66

query: Return pIC50 (reported value) for this compound: O=C(O)CCn1ncc2c1CCC[C@H]2NS(=O)(=O)c1ccc(-c2cccc(C(F)(F)F)c2)cc1 [Example 10-31a]
result: 8.25

query: Indicate the recorded pIC50 value for this compound: Cc1ccccc1Oc1ccc(S(=O)(=O)N(C)[C@@H]2CCCc3c2cnn3CC(=O)O)cc1Cl [Example 9-26a]
result: 7.63

query: Using known records, supply pIC50 for Cc1cc(F)ccc1Oc1ccc(S(=O)(=O)N(C)[C@@H]2CCCc3c2cnn3CC(=O)O)cc1Cl [Example 9-38a]
result: 8.10

* * *

targetEntity: UniProt:Q9Y5Y4
procedureSummary: Human CRTH2 Receptor Binding Assay (whole cell, [3H]ramatroban competition)
setupConditions: CHO-K1 cells expressing human CRTH2 and G-alpha16; 20 nM [3H]ramatroban; 1 hour, room temperature
experimentalReadout: pIC50
Notebook: values listed as pIC50 are -log10 of the concentration (mol/L).

Worked cases, answers included:
>>> df
                                   molecule    targetentity  experimentalreadout  observedvalue
0  CCOc1cccc(-c2ccc(S(=O)(=O)NC3CCCc4c3cnn4CC(=O)O)cc2)c1 (stereo not shown) [Example 10-20a]  UniProt:Q9Y5Y4                pIC50           6.57
1  CN([C@@H]1CCCc2c1cnn2CC(=O)O)S(=O)(=O)c1ccc(Oc2ccc(F)cc2F)c(Cl)c1 [Example 9-32a]  UniProt:Q9Y5Y4                pIC50           8.12
2  CN([C@@H]1CCCc2c1cnn2CCC(=O)O)S(=O)(=O)c1cc(C(F)(F)F)cc(S(=O)(=O)c2ccc(Cl)cc2)c1 [Example 13-4a]  UniProt:Q9Y5Y4                pIC50           8.60

Field: next molecule
query: Provide pIC50, system UniProt:Q9Y5Y4, entry O=C(O)Cn1ncc2c1CCCC2NS(=O)(=O)c1ccc(-c2cccc(OC(F)(F)F)c2)cc1 (stereo not shown) [Example 10-14a]
result: 7.24
